# credit: paper doi:10.1101/2025.05.22.655646

target: T1, eOD-GT8 (Human immunodeficiency virus 1, …); test: SPR; monoclonal IgGs and eOD-GT8; as previously described (ref. 19); conditions: both partners purified
T1 construct: also called engineered outer domain germline-targeting version 8; eOD-GT8 monomer
pKd: −log10 of the molar value.
# Lookup of reported pKd keyed by entry
endpoint: pKd

INSERT INTO results (binder, endpoint, quantitative_readout) VALUES
  ('G001_LD_07A_VRC01c_59 (antibody, V domains shown, also called G001-59) VH: QVQLVQSGAEVKKPGTSVKVSCKASEYTFTGYYVHWVRQAPGQGLEWMGWINPNSGGTNYAQKFQGWVTMTRDTSISTAYMELSRLKSDDTAVYYCARSDYISSWYFGYWGQGTLVTVSS VL: EIVMTQSPATLSVSPGERATLSCRASQSVSSNLAWYQQKPGQAPRLLIYGTSTRATGIPARFSGSGSGTEFTLTISSLQSEDFAVYYCQQYETFGQGTKVEIK', 'pKd', 8.75),
  ('G001_gp1_V10_VRC01c_179 (antibody, V domains shown, also called G001-179) VH: QVQLVQSGADVKKPGASVKVSCKASGYTFTDYYMHWVRQAPGQGLEWMGWINPNSGGTNYAQKFQDRVTMTRDTSVSTAYMEVSGLRSDDTAVYYCARIKLCNGGSCNWSLGYWGQGSLVTVSS VL: DIQMTQSPSSLSASVGDRVTITCQASQDISNYLNWYQQKPGKAPKLLIYGASNLETGVPSRFSGSGSGTDFTFTISSLQPEDIATYYCQQYEFFGPGTKVDIK', 'pKd', 9.89),
  ('G001_LD_07A_VRC01c_58 (antibody, V domains shown, also called G001-58) VH: QVQLVQSGAEVRKPGASVKVSCKASGYTFTDYYIHWVRQAPGQGLEWMGWINPNSGGTNYAQKFQGWVTMTRDTSISTAHMELRRLRSDDRAVYYCARGVVHSGFEFGYWGQGTLVTVSS VL: DIQMTQSPSTLSASVGDRVTITCRASQSISNWLAWYQQKPGKAPKLLIYKASSLESGVPSRFSGSGSGTEFTLTISSLQPDDFATYYCQQYETFGQGTKVEIK', 'pKd', 9.36),
  ('G001_gp1_V10_VRC01c_2021-0087 (antibody, V domains shown, also called G001-0087) VH: QVQLVQSGAEVKKPGASVKVSCKASGYTFTGNYIHWVRQAPGQGLEWVGWLNPNSGGTNYAQQFQGRVTMTRDTSISTAYMELNRLRSDDTAVFYCARGLWQWEFRYWGQGTLVTVSS VL: DIVLTQSPGTLSLSPGERATLSCRASQSVSSSNLAWYQQKPGQAPRLLIYGASSRATGIPDRFSGSGSGTDFTLTISRLEPEDCAVYYCQQYEGFGGGTKVEIK', 'pKd', 9.82);
